Biological target: T1, Lsb1, P53281
T1 sequence (P53281 45-122, looked up): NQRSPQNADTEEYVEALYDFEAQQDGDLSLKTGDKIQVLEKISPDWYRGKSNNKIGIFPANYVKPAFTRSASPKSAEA
Assay: SPOT array
Settings: median of control spots 388
metric: SPOT intensity

> print(dat)
             binder  observed
 1  RTRRRPPPPPIPSTQ       800
 2  DLPLPDLPPEPPTEL         0
 3  GDHPKGPPPPPPPDE         0
 4  RRRRRPHRIERPLSN         0
 5  SAPDIPPRSPNRNAH       857
 6  RPPRPPPKPLHLRTE       266
 7  NSVPIMPTLPPRPYI       176
 8  FYNRTAFQLPGDARV      2060
 9  KNPRRQLQIPRQQPS       216
10  IAPIPMPKPNPTHIS         2
11  VLRFLGFPLPIFEKG         0
12  STPQTMRQAPKRPDA        24
13  HGKRRAPLLLAKLDV         0
14  LLRRTIPKRPFYHVL       139
15  LRIKRKPVQTFFEFI         4

Source: paper PMC2756588
